Experimental target: T1, cynomolgus monkey IL-33 (cys mut) (cynomolgus monkey)
T1 chain: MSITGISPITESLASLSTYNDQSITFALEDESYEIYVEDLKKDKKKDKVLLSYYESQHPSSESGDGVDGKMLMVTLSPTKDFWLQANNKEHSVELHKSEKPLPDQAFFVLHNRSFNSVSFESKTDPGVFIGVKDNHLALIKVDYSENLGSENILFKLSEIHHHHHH
Assay name: cell-based or functional assay
Readout: IC50, HEK293 ST2 NFkB cyno IL-33 (nM)
Lab book: enter the figure in nM, no units written.

>>> endpoint_result("IL33-168 (antibody, human IgG1, kappa, V domains shown) VH: EVQLVESGGGLVQPGGSLRLSCAASGFTFSSYWMYWVRQAPGKGLEWVASITPNAGEDYYPESVKGRFTISRDNAKNSLYLQMNSLRAEDTAVYYCARGHYYYTSYSLGYWGQGTLVTVSS VL: DIQMTQSPSSLSASVGDRVTITCKASQNINKHLDWYQQKPGKAPKLLIYFTNNLQTGVPSRFSGSGSGTDFTLTISSLQPEDFATYYCFQYNNGWTFGGGTKVEIKR")
0.264
>>> endpoint_result("IL33-188 (antibody, human IgG1, kappa, V domains shown) VH: EVQLVESGGGLVQPGGSLRLSCAASGFTFSSYWMYWVRQAPGKGLEWVAAITPNAGETYYPESVKGRFTISRDNAKNSLYLQMNSLRAEDTAVYYCARGHYYYTSYSLGYWGQGTLVTVSS VL: DIQMTQSPSSLSASVGDRVTITCKASQNINKHLDWYQQKPGKAPKLLIYFTNNLQTGVPSRFSGSGSGTDFTLTISSLQPEDFATYYCFQYNQGWTFGGGTKVEIKR")
0.351

Next, consider the following binder.
What does the data say about its IC50, HEK293 ST2 NFkB cyno IL-33? Entry: IL33-171 (antibody, human IgG1, kappa, V domains shown) VH: EVQLVESGGGLVQPGGSLRLSCAASGFTFSSYWMYWVRQAPGKGLEWVAAITPNAGEDYYPDSVKGRFTISRDNAKNSLYLQMNSLRAEDTAVYYCARGHYYYTSYSLGYWGQGTLVTVSS VL: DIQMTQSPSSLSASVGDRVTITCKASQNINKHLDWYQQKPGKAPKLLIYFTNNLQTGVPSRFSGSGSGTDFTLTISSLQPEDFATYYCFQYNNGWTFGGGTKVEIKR
0.216

Where do these numbers come from? They come from patent US20180037644A1.
